- target entity: T1, OC2R480 (human, UniProt O95948 330-485, R480A)
- T1 sequence: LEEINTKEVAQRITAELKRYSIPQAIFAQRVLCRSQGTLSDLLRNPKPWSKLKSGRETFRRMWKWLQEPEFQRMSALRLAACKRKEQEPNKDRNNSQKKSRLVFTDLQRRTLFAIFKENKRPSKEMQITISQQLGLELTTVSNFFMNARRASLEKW
- assay summary: ITC; ITC: 1X PBS pH 7.4, 0.005% Tween-20, 1 mM beta-ME, 25 C (also 12 and 30 C for heat capacity); BLI: 1X PBS, 0.5 mM TCEP, 0.005% Tween-20
- measurement parameters: protein: recombinant; tags: His6 removed by TEV
measured parameter: Kd (nM)
State the answer as a number, implicitly in nM.

Find the recorded Kd belonging to PEG10 promoter DNA (12mer duplex) (dsDNA) DNA 1: AGATCGATTTGC DNA 2: GCAAATCGATCT and report it. 47
